The reported numbers originate from the OligoGym collection.

Catalogue of caspase activation (% of PBS control) values
# system: HIF1A
# procedure_text: HeLa, 100 nM transfected, 24 h, mean of 3
# condition_context: ASO
Bases are written 5' to 3'; sugars and linkages follow in the same order, as letters with counts (s phosphorothioate, o phosphodiester; PS: all linkages phosphorothioate). C may stand for cytosine or 5-methylcytosine; the collection does not tell. l = locked nucleic acid (LNA); d = 2'-deoxy (DNA)
Answer using only a numeral; do not append any unit.

[
  {
    "record_sequence": "GTTACTGCCTTCTTAC (sugars lldldddddddldlll, PS)",
    "system": "HIF1A",
    "caspase activation (% of PBS control)": 170
  },
  {
    "record_sequence": "GTTACTGCCTTCTTAC (sugars lldllddddddldldl, PS)",
    "system": "HIF1A",
    "caspase activation (% of PBS control)": 294
  },
  {
    "record_sequence": "GTTACTGCCTTCTTAC (sugars l2 d1 l1 d9 l3, PS)",
    "system": "HIF1A",
    "caspase activation (% of PBS control)": 130
  },
  {
    "record_sequence": "TTACTGCCTTCTT (sugars l2 d1 l1 d8 l1, PS)",
    "system": "HIF1A",
    "caspase activation (% of PBS control)": 147
  },
  {
    "record_sequence": "GTTACTGCCTTCTTAC (sugars l2 d1 l2 d6 l5, PS)",
    "system": "HIF1A",
    "caspase activation (% of PBS control)": 474
  },
  {
    "record_sequence": "CAAGCATCCTGTA (sugars l2 d1 l1 d7 l2, PS)",
    "system": "HIF1A",
    "caspase activation (% of PBS control)": 133
  },
  {
    "record_sequence": "TGGCAAGCATCCTGTA (sugars l1 d10 l2 d2 l1, PS)",
    "system": "HIF1A",
    "caspase activation (% of PBS control)": 346
  },
  {
    "record_sequence": "TGGCAAGCATCCT (sugars l4 d7 l2, PS)",
    "system": "HIF1A",
    "caspase activation (% of PBS control)": 447
  },
  {
    "record_sequence": "TACTGCCTTCTTA (sugars l3 d7 l1 d1 l1, PS)",
    "system": "HIF1A",
    "caspase activation (% of PBS control)": 368
  },
  {
    "record_sequence": "GTTACTGCCTTCTTAC (sugars llddldddddddlldl, PS)",
    "system": "HIF1A",
    "caspase activation (% of PBS control)": 330
  }
]

Item GTTACTGCCTTCTTAC (sugars ldldlddddddlllll, PS) has what recorded caspase activation (% of PBS control)?
342
